Recorded values, source paper PMC4032265.

- target system: 5HT2B receptor (Homo sapiens, UniProt P41595)
- assay protocol: 5HT2B functional assay, antagonist mode (inhibition of agonist activity)
- Type: cell-based
- condition parameters: antagonist mode; read-out: IC50 at 5HT2B receptors (Figure S2)
measure: IC50 (nM)
Answers are plain numbers, in nM.

**Q:** Write down the reported IC50 of `Clc1cccc(CNc2nc(Cl)nc3[nH]cnc23)c1` , test system: 5HT2B receptor (Homo sapiens, UniProt P41595).
**A:** 890

Turning to the following compound.
**Q:** Write down the reported IC50 of `CNC(=O)[C@@]12C[C@@H]1[C@@H](n1cnc3c(NCc4cccc(Cl)c4)nc(Cl)nc31)[C@H](O)[C@@H]2O` , test system: 5HT2B receptor (Homo sapiens, UniProt P41595).
**A:** 3260

* * *

- target system: α2A adrenergic receptor (Homo sapiens, UniProt P08913)
- Sequence (P08913 1-465): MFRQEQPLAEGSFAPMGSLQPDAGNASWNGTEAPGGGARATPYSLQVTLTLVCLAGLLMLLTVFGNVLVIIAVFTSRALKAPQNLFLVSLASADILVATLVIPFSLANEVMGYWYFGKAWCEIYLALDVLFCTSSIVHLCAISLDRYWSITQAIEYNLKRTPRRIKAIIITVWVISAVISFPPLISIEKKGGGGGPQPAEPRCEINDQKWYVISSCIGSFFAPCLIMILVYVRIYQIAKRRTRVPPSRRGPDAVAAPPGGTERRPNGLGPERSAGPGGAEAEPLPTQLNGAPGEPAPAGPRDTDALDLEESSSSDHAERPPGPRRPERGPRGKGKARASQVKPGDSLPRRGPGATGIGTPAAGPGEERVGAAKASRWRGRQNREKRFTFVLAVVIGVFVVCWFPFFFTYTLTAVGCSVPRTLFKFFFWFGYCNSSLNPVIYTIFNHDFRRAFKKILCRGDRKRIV
- assay protocol: PDSP radioligand binding, α2A
- condition parameters: read-out: % inhibition at 10 µM; single concentration 10 µM
Given measured inhibition at 10 µM, output yes (1) if it is greater than or equal to 20% and no (0) if not.

Sample answers from the record:
**Q:** Identify whether the reported inhibition at 10 µM of the following compound is 20% or greater: O[C@@H]1[C@H](O)[C@@H]2C[C@@H]2[C@H]1n1cnc2c(NCc3cccc(Cl)c3)ncnc21 [Compound 7]
**A:** yes (1)

**Q:** Identify whether the reported inhibition at 10 µM of the following compound is 20% or greater: CNC(=O)[C@@]12C[C@@H]1[C@@H](n1cnc3c(NCc4cccc(Cl)c4)nc(C#Cc4ccc(F)cc4)nc31)[C@H](O)[C@@H]2O [Compound 2]
**A:** no (0)

**Q:** Identify whether the reported inhibition at 10 µM of the following compound is 20% or greater: O[C@@H]1[C@H](O)[C@@H]2C[C@@H]2[C@H]1n1cnc2c(NC(C3CC3)C3CC3)nc(Cl)nc21 [Compound 10]
**A:** no (0)

**Q:** Identify whether the reported inhibition at 10 µM of the following compound is 20% or greater: Clc1cccc(CNc2nc(Cl)nc3[nH]cnc23)c1 [Compound 9]
**A:** yes (1)

**Q:** Identify whether the reported inhibition at 10 µM of the following compound is 20% or greater: O[C@@H]1[C@H](O)[C@@H]2C[C@@H]2[C@H]1n1cnc2c(NCc3cccc(Cl)c3)nc(C#Cc3ccc(F)c(F)c3)nc21 [Compound 6]
**A:** no (0)

**Q:** Identify whether the reported inhibition at 10 µM of the following compound is 20% or greater: CNC(=O)[C@@]12C[C@@H]1[C@@H](n1cnc3c(NC)nc(C#Cc4ccc(F)c(F)c4)nc31)[C@H](O)[C@@H]2O [Compound 5]
**A:** no (0)

More entries:
**Q:** Identify whether the reported inhibition at 10 µM of the following compound is 20% or greater: Fc1ccc(C#Cc2nc(NCc3cccc(Cl)c3)c3nc[nH]c3n2)cc1F [Compound 8]
**A:** yes (1)

**Q:** Identify whether the reported inhibition at 10 µM of the following compound is 20% or greater: CNC(=O)[C@@]12C[C@@H]1[C@@H](n1cnc3c(NCc4cccc(Cl)c4)nc(C#Cc4ccccc4Cl)nc31)[C@H](O)[C@@H]2O [Compound 3]
**A:** yes (1)

**Q:** Identify whether the reported inhibition at 10 µM of the following compound is 20% or greater: CNC(=O)[C@@]12C[C@@H]1[C@@H](n1cnc3c(NCc4cccc(Cl)c4)nc(Cl)nc31)[C@H](O)[C@@H]2O [Compound 4]
**A:** yes (1)

* * *

- target system: 5HT2B serotonergic receptor (Homo sapiens, UniProt P41595)
- Sequence (P41595 whole entry): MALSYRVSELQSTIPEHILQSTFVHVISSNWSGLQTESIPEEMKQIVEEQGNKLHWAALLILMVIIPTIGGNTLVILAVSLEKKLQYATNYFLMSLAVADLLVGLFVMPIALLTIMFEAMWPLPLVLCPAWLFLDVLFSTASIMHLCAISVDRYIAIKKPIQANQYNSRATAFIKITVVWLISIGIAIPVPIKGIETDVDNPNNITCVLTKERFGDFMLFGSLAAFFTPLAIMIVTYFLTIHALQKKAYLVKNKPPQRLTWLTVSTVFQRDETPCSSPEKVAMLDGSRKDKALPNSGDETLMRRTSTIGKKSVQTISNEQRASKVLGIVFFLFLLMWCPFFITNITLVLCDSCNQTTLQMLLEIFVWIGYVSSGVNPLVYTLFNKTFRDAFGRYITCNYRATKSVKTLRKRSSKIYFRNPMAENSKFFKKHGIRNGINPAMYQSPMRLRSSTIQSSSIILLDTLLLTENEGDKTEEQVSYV
measure: Ki

Worked cases, answers included:
**Q:** Sample Clc1cccc(CNc2nc(Cl)nc3[nH]cnc23)c1 [Compound 9] — what was its Ki?
**A:** 1780 nM

**Q:** Sample CNC(=O)[C@@]12C[C@@H]1[C@@H](n1cnc3c(NCc4cccc(Cl)c4)nc(C#Cc4ccccc4Cl)nc31)[C@H](O)[C@@H]2O [Compound 3] — what was its Ki?
**A:** 3650 nM

**Q:** Sample Fc1ccc(C#Cc2nc(NCc3cccc(Cl)c3)c3nc[nH]c3n2)cc1F [Compound 8] — what was its Ki?
**A:** 4000 nM

**Q:** Sample CNC(=O)[C@@]12C[C@@H]1[C@@H](n1cnc3c(NCc4cccc(Cl)c4)nc(Cl)nc31)[C@H](O)[C@@H]2O [Compound 4] — what was its Ki?
**A:** 75 nM

**Q:** Sample CNC(=O)[C@@]12C[C@@H]1[C@@H](n1cnc3c(NCc4cccc(Cl)c4)nc(C#Cc4ccc(F)c(F)c4)nc31)[C@H](O)[C@@H]2O [Compound 1] — what was its Ki?
**A:** 2580 nM

**Q:** Sample CNC(=O)[C@H]1O[C@@H](n2cnc3c(NCc4cccc(I)c4)ncnc32)[C@H](O)[C@@H]1O [IB-MECA] — what was its Ki?
**A:** 1080 nM

Each molecule below has a reported value. Please supply its Ki.
1. CNC(=O)[C@@]12C[C@@H]1[C@@H](n1cnc3c(NCc4cccc(Cl)c4)nc(C#Cc4ccc(F)cc4)nc31)[C@H](O)[C@@H]2O [Compound 2]
2. O[C@@H]1[C@H](O)[C@@H]2C[C@@H]2[C@H]1n1cnc2c(NCc3cccc(Cl)c3)ncnc21 [Compound 7]

**A:**
1. 2130 nM
2. 2220 nM

* * *

This section lists Ki readings for δ opioid receptor (Homo sapiens).
Answers are plain numbers, in µM.

**Q:** Sample `CNC(=O)[C@@]12C[C@@H]1[C@@H](n1cnc3c(NCc4cccc(Cl)c4)nc(C#Cc4ccc(F)cc4)nc31)[C@H](O)[C@@H]2O` — what was its Ki?
**A:** 6.62

Turning to the following compound.
**Q:** Sample `CNC(=O)[C@@]12C[C@@H]1[C@@H](n1cnc3c(NCc4cccc(Cl)c4)nc(C#Cc4ccc(F)c(F)c4)nc31)[C@H](O)[C@@H]2O` — what was its Ki?
**A:** 2.44

* * *

Protein target, amino acids: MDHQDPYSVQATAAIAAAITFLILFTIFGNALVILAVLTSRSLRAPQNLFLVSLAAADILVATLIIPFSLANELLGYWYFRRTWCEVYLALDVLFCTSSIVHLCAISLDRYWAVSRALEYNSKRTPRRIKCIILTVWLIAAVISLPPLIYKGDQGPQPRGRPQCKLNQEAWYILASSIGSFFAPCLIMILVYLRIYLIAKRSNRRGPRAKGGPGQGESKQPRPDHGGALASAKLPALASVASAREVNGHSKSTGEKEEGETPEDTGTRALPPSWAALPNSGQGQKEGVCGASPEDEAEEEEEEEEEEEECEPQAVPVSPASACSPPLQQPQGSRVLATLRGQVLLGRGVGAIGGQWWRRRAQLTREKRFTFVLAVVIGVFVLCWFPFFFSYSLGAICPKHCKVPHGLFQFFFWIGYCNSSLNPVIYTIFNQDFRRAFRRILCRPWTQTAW
Kindly state pKi for each of the entries shown.
Answers are plain numbers, as −log10 of the molar value.

**Q:** Sample `CNC(=O)[C@@]12C[C@@H]1[C@@H](n1cnc3c(NCc4cccc(Cl)c4)nc(C#Cc4ccc(F)c(F)c4)nc31)[C@H](O)[C@@H]2O` — what was its pKi?
**A:** 5.54

**Q:** Sample `O[C@@H]1[C@H](O)[C@@H]2C[C@@H]2[C@H]1n1cnc2c(NCc3cccc(Cl)c3)nc(C#Cc3ccc(F)c(F)c3)nc21` — what was its pKi?
**A:** 5.22

**Q:** Sample `CNC(=O)[C@@]12C[C@@H]1[C@@H](n1cnc3c(NCc4cccc(Cl)c4)nc(C#Cc4ccccc4Cl)nc31)[C@H](O)[C@@H]2O` — what was its pKi?
**A:** 5.19

**Q:** Sample `Clc1cccc(CNc2nc(Cl)nc3[nH]cnc23)c1` — what was its pKi?
**A:** 7.21

**Q:** Sample `Fc1ccc(C#Cc2nc(NCc3cccc(Cl)c3)c3nc[nH]c3n2)cc1F` — what was its pKi?
**A:** 5.96

Turning to the following molecule.
**Q:** Sample `O[C@@H]1[C@H](O)[C@@H]2C[C@@H]2[C@H]1n1cnc2c(NCc3cccc(Cl)c3)ncnc21` — what was its pKi?
**A:** 5.20
